biological target: Succinyl-diaminopimelate desuccinylase (Haemophilus influenzae (strain ATCC 51907 / DSM 11121 / KW20 / Rd)); assay: Inhibition of Haemophilus influenzae DapE
Sequence (P44514 whole entry): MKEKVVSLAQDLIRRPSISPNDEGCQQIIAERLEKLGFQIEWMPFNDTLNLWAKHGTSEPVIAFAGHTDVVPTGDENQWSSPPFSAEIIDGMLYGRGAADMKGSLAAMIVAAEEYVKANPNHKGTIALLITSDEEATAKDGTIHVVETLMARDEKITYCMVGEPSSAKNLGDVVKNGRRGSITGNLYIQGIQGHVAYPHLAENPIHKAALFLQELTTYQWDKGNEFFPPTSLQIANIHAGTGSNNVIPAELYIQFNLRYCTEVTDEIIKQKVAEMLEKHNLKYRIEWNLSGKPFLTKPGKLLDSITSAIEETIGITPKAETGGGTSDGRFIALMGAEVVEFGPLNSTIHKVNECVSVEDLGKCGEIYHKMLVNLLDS
readout_name: IC50 (µM)
The reply should be a number in µM, with the unit left off.

Prompt: Answer with the recorded IC50 for the molecule listed here: CC(Sc1nnnn1-c1ccccc1)C(=O)Nc1ccc(Cl)cn1 (stereo not given)
Completion: 57.3

Prompt: Identify measured IC50 corresponding to "O=C(CSc1nnnn1-c1ccccc1)NCc1ccccc1"
Completion: 103

Prompt: Assign IC50 to the following record: "O=C(CSc1nnnn1-c1ccccc1)Nc1nccs1"
Completion: 50.2

Prompt: Entry "O=C(CSc1nnnn1-c1ccccc1)Nc1ccccc1" needs its IC50 filled in; supply it.
Completion: 54.3

Prompt: Please report the measured IC50 for CC(Sc1nnnn1-c1ccccc1)C(=O)Nc1ccccc1 (stereo not given)
Completion: 134

---

target: Succinyl-diaminopimelate desuccinylase (Haemophilus influenzae (strain ATCC 51907 / DSM 11121 / KW20 / Rd)); test: Inhibition of Haemophilus influenzae DapE at 100 uM relative to control
Each entry gets rule not met if its inhibition stays under 50%, and rule met if its inhibition is 50% or above.

Prompt: Can CC(Sc1nnnn1-c1ccccc1)C(=O)Nc1ccc(Cl)cn1 (stereo not drawn) be said to have inhibition at or above 50%?
Completion: rule met

Prompt: Record "O=C(CSc1nnnn1-c1ccccc1)NCc1ccccc1" ; criterion: inhibition no lower than 50%. Met?
Completion: rule met

Prompt: Check this compound for inhibition at or above 50%: "O=C(CSc1nnnn1-c1ccccc1)Nc1ccccc1"
Completion: rule met

Prompt: Is inhibition for CC(Sc1nnnn1-c1ccccc1)C(=O)Nc1ccon1 (stereo not drawn) at or above 50%?
Completion: rule not met

Prompt: Identify whether the reported inhibition of the following compound is 50% or greater: CC(Sc1nnnn1-c1ccccc1)C(=O)NCc1ccccc1 (stereo not drawn)
Completion: rule not met

Prompt: Would you say CC(Sc1nnnn1-c1ccccc1)C(=O)Nc1cnccn1 (stereo not drawn) shows inhibition at minimum 50%?
Completion: rule not met

Prompt: I'd appreciate it if you could say whether "O=C(CSc1nnnn1-c1ccccc1)Nc1ccccn1" has inhibition at least equal to 50%.
Completion: rule not met

Prompt: Test whether the compound "O=C(CSc1nnnn1-c1ccccc1)Nc1cnccn1" records inhibition of 50% or higher.
Completion: rule not met

Prompt: # check: inhibition of "O=C(CSc1nnnn1-c1ccccc1)Nc1nccs1" is greater than or equal to 50%
Completion: rule met

Prompt: I'd appreciate it if you could say whether CC(Sc1nnnn1-c1ccccc1)C(=O)Nc1ccccc1 (stereo not drawn) has inhibition at least equal to 50%.
Completion: rule met

Prompt: Hi team, for CC(Sc1nnnn1-c1ccccc1)C(=O)Nc1ccccn1 (stereo not drawn) , is the recorded inhibition at or above 50%?
Completion: rule not met

Prompt: Is inhibition for CC(Sc1nnnn1-c1ccccc1)C(=O)Nc1nccs1 (stereo not drawn) at or above 50%?
Completion: rule not met
